Below, each of the binders is paired with its reported koff value.
Molecular target: T1, recombinant human TfR (2474-TR, R&D Systems), biotinylated (human, UniProt P02786 89-760, biotinylated with EZ-Link NHS-PEG4-Biotinylation Kit)
T1 construct: Bought protein; also called immobilized recombinant human TfR; biotinylated human TfR
T1 sequence (P02786 89-760 limits assumed): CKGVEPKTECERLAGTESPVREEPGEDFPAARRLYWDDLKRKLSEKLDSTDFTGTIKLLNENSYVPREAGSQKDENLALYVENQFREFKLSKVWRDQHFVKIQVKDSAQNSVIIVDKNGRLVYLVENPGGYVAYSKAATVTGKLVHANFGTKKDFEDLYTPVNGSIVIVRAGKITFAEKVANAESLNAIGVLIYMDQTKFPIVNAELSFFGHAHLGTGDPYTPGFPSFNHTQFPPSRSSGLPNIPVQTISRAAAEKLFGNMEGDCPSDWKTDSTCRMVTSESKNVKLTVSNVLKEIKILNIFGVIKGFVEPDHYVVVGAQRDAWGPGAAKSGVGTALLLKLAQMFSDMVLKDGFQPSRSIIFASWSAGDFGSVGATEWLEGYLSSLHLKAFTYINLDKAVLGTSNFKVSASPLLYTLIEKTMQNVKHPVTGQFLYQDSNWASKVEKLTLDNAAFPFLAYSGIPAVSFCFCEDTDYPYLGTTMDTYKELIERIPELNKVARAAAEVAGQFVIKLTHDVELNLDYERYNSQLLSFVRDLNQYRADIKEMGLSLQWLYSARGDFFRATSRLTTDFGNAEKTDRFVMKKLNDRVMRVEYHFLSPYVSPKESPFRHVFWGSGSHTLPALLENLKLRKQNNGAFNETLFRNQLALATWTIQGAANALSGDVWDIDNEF
Test: SPR (Biacore), biotinylated human TfR captured on an SA chip, VHH injected, 1:1 dissociation fit, pH 7.4
measureName: koff (s⁻¹)

{"columns": ["binder", "measureName", "reported"],
 "data": [
  ["BBB00699 (VHH, Histidine mutant) VHH: EVQLVESGGGSVQPGGSLRLSCTASGRTFNHAMGWFRQAPGKNREFVATIDWKDGSSYYLDSVRGRFTIERDDAKNTVYLQMNSLRPEDAAVYTCAVGDGDYCSTYTCAAEVEYDYWGQGTLVTVSS", "koff", 0.00524],
  ["BBB00697 (VHH, also called histidine mutant of BBB00515) VHH: EVQLVESGGGSVQPGGSLRLSCTASGRTHNYAMGWFRQAPGKNREFVATIDWKDGSSYYLDSVRGRFTIERDDAKNTVYLQMNSLRPEDAAVYTCAVGDGDYCSTYTCAAEVEYDYWGQGTLVTVSS", "koff", 0.00596],
  ["BBB00695 (VHH, Histidine mutant) VHH: EVQLVESGGGSVQPGGSLRLSCTASGHTFNYAMGWFRQAPGKNREFVATIDWKDGSSYYLDSVRGRFTIERDDAKNTVYLQMNSLRPEDAAVYTCAVGDGDYCSTYTCAAEVEYDYWGQGTLVTVSS", "koff", 0.00577],
  ["BBB00719 (VHH, Histidine mutant) VHH: EVQLVESGGGSVQPGGSLRLSCTASGRTFNYAMGWFRQAPGKNREFVATIDWKDGSSYYLDSVRGRFTIERDDAKNTVYLQMNSLRPEDAAVYTCAVGDGDYCSHYTCAAEVEYDYWGQGTLVTVSS", "koff", 0.00586],
  ["BBB00677 (VHH, also called variant of BBB00533) VHH: EVQLVESGGGSVQPGGSLRLSCTASGRTFNYAMGWFRQAPGKNREFVATIDWKDGSSYYLDSVRGRFTIERDDAKNTVYLQMNSLRPEDAAVYTCAVGDGDYCSTYTCAAEVEYDYWGQGTLVTVSS", "koff", 0.00545],
  ["BBB00729 (VHH, also called histidine mutant of BBB00515) VHH: EVQLVESGGGSVQPGGSLRLSCTASGRTFNYAMGWFRQAPGKNREFVATIDWKDGSSYYLDSVRGRFTIERDDAKNTVYLQMNSLRPEDAAVYTCAVGDGDYCSTYTCAAEVEYDHWGQGTLVTVSS", "koff", 0.00562],
  ["BBB00704 (VHH, also called histidine mutant of BBB00515) VHH: EVQLVESGGGSVQPGGSLRLSCTASGRTFNYAMGWFRQAPGKNREFVATHDWKDGSSYYLDSVRGRFTIERDDAKNTVYLQMNSLRPEDAAVYTCAVGDGDYCSTYTCAAEVEYDYWGQGTLVTVSS", "koff", 0.00358],
  ["BBB00694 (VHH, Histidine mutant) VHH: EVQLVESGGGSVQPGGSLRLSCTASHRTFNYAMGWFRQAPGKNREFVATIDWKDGSSYYLDSVRGRFTIERDDAKNTVYLQMNSLRPEDAAVYTCAVGDGDYCSTYTCAAEVEYDYWGQGTLVTVSS", "koff", 0.00538]
]}
